Taken from paper PMC12040169.

assay: in vitro; conditions: human, hela cells, % viability
Mark Satisfied only when viability at 28.5 h, 10 µM stays strictly below 90%. Values equal to the cut-off are Not satisfied.

C(=N\c1ccc(Cc2ccc(/N=C/c3cccnc3)cc2)cc1)/c1cccnc1    Not satisfied
O=C(CSCc1nc(O)c2c3c(sc2n1)CCCC3)NC1CCCCC1    Satisfied
CCn1nc(-c2ccc(Cl)cc2)c2c(=O)n(C)c(=O)[nH]c21    Not satisfied
CC(=O)N1CCc2sccc2C1c1ccc(NCc2ccc(F)c(F)c2)cc1 (centres unmarked)    Not satisfied
COc1ccccc1Cc1cccc(C2CCCN2C(=O)c2ccc(F)cc2)n1 (centres unmarked)    Not satisfied
COc1cc(OC)cc(-c2nnc(SCc3cccc(C(=O)O)c3)[nH]2)c1    Not satisfied
O=C(c1cc(C2CC2)n[nH]1)N1CCn2cc(C(F)(F)F)nc2C1    Satisfied
Cc1nnc(SCC(=O)NNC(=O)c2cccs2)[nH]1    Not satisfied
COc1cc(-c2cn3ccnc3c(N(C)CCN(C)C)n2)cc(OC)c1OC    Not satisfied
Cn1c(SCCCN2C(=O)c3cccc4cccc(c34)C2=O)nnc1-c1ccncc1    Not satisfied
Cc1sc2c(c1C)c(=O)nc1scc(CC(=O)NCCO)n12    Not satisfied
COc1cc(CNc2ccc3[nH]c(=O)[nH]c3c2)cc(Br)c1OCC(=O)NC(C)(C)C    Satisfied
O=c1oc2ccc(Cl)cc2n1C1CCN(Cc2ccco2)CC1    Not satisfied
O=C(O)C1CSC(c2cc3ccccc3o2)N1 (centres unmarked)    Not satisfied
C=CCn1c(-c2sc(NC(=O)c3ccc(CNC(=O)NC(C)C)cc3)nc2C)n[nH]c1=S    Not satisfied
COc1ccc(CCNC(=O)/C=C/C(=O)O)cc1OC    Not satisfied
O=C(NCCCN1CCCC1=O)c1cnc(-c2ccc(Cl)cc2)c(-c2ccncc2)c1    Satisfied
O=c1ccc2ccc(-c3ccc(OC(F)(F)F)cc3)nc2[nH]1    Not satisfied
COc1ccc(Oc2nccnc2N2CCN(CCCC#N)CC2)cc1OC [CBK083056T]    Not satisfied
Cc1ccc(NC(=O)c2ccccc2NS(=O)(=O)c2ccc(C(C)C)cc2)cc1    Satisfied
O=C(O)c1cccc(NS(=O)(=O)c2cc(C(F)(F)F)cc(C(F)(F)F)c2)c1    Not satisfied
O=C(Cc1ccsc1)N1CCC(c2cc3cccnc3[nH]2)CC1    Satisfied
CS(=O)(=O)c1ccc(-c2cnc3nc(N)ccc3c2)cc1    Not satisfied
O=C1c2cc(-c3nc(-c4ccccc4)[nH]c3-c3ccccc3)ccc2-c2ccc([N+](=O)[O-])cc21    Satisfied
CN(C)CC(=O)Nc1cc(C(F)(F)F)ccc1Cl    Satisfied
CCc1nn(CC(=O)NC(C)(C)C)c(=O)c2cc3sc(C)cc3n12    Satisfied
CC(C)NC(=O)CN(C)Cc1nc(-c2cccc(C(F)(F)F)c2)no1    Satisfied
c1ccc(COc2ccccc2-c2cc(N3CCN(c4ccccn4)CC3)ncn2)cc1    Not satisfied
N#Cc1cc(Nc2ccc(Cc3ccncc3)cc2)c([N+](=O)[O-])cc1C#N    Not satisfied

###

assay: in vitro; details: human, hela cells, % viability
# viability at 28.5 h, 10 µM annotations
Assay Endpoint: viability at 28.5 h, 10 µM (%)

c1cncc(-c2nccnc2NCC2CC2)c1    80.9
CCN1C(=O)C2(CC(=O)N(CCCCC(C)C)C2=O)c2cc(C)ccc21 (centres unmarked)    103
O=P(O)(O)Cc1ccccc1-c1ccccc1    111
Cc1c(C(=O)O)sc(S(=O)(=O)N2CCN(C(=O)Cc3ccccc3Cl)CC2)c1C(=O)O    107
CCCc1cc(=O)n2c(n1)SCOC2    108
